Subject of test: αCOPI-WD40 domain (residues 1-327) (Schizosaccharomyces pombe, UniProt Q96WV5, F197K/I192K/L181K/L185K/L196K)
Sequence (Q96WV5 1-327 L181K/L185K/I192K/L196K/F197K limits assumed): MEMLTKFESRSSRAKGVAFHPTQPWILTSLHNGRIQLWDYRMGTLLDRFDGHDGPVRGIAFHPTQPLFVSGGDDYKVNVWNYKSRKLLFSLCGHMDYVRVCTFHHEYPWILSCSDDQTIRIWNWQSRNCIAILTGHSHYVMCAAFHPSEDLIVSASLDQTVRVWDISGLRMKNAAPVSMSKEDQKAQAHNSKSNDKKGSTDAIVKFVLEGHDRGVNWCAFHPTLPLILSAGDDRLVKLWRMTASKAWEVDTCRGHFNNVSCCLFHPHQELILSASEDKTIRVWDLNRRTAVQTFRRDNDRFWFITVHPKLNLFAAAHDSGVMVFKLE
Run description: biochemical
Assay type: binding
Experimental parameters: pH 6.5
Peptide text beside a SMILES is read from it.
We begin with a simple list: items and their reported koff.

Compound: CC(C)C[C@H](NC(=O)[C@H](CCCCN)NC(=O)[C@@H](NC(=O)CN)C(C)C)C(=O)N[C@@H](Cc1c[nH]cn1)C(=O)N[C@@H](Cc1ccc(O)cc1)C(=O)N[C@@H](CCC(N)=O)C(=O)O [GVKLHYQ] (H-GVKLHYQ-OH)
Result units: s⁻¹
koff: 0.066

Compound: CC(C)C[C@H](NC(=O)[C@H](CCCCN)NC(=O)[C@@H](NC(=O)CN)C(C)C)C(=O)N[C@@H](Cc1c[nH]cn1)C(=O)N[C@@H](Cc1ccc(O)cc1)C(=O)N[C@@H](C)C(=O)O [GVKLHYA] (H-GVKLHYA-OH)
Result units: s⁻¹
koff: 0.076

Compound: CC(C)C[C@H](NC(=O)[C@H](CCCCN)NC(=O)[C@@H](NC(=O)CN)C(C)C)C(=O)N[C@@H](Cc1c[nH]cn1)C(=O)N[C@@H](Cc1ccc(O)cc1)C(=O)N[C@H](C(=O)O)C(C)C [GVKLHYV] (H-GVKLHYV-OH)
Result units: s⁻¹
koff: 0.212
